Hello, the source for this data is PubChem BioAssay AID1159580, in case you need it.

Quick reference for normalized growth among some compounds
assay: chemical genetic growth profiling, strain panel (AID 1159580);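 note: tested at 20 µM; growth read once vehicle control cultures reached saturation at 30 °C; 1 = growth at the plate median or of vehicle wells; lower values mean less growth of the strain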; conditions: S. cerevisiae deletion strains, growth OD, locus YMR125W, strain sto1, hits give low values
The campaign covered roughly 5,500 compounds. About 2,000 (36%) were called active. Roughly 18% stayed inconclusive and do not appear here. This is one part of the list.
Just the number, please, no unit attached.

Example compounds with recorded normalized growth:
• C[N+](C)(C)CC(O)CC(=O)O (stereo not given) = 0.969
• CC(C)c1c(O)c(-c2cc3c(c(C(C)C)c2O)CCC2C(C)(C)CCC[C@]32C)cc2c1CCC1C(C)(C)CCC[C@]21C (stereo not given in full) = 0.968
• C[C@]12CCC3c4ccc(OS(=O)(=O)O)cc4CCC3C1CC[C@H]2O (stereo not given in full) = 0.994

Attention now shifts to the item below.
Input line: Which normalized growth reading was recorded for the compound CC(C)c1c(O)ccc2c1CCC1C(C)(C)CCC[C@]21C (stereo not given in full) ?
Output line: 0.928

###

test: chemical genetic growth profiling, strain panel (AID 1159580); conditions: S. cerevisiae deletion strains, growth OD, locus YER155C, strain BEM2
In all, about 5,500 compounds went through this assay and about 2,000 (36%) were called active. Another 18% or so got no clear call; they are omitted. No stated cut-off is given here; in the data, active means normalized growth mostly below about 0.91 (no sharp cut-off); inconclusive means no clear call, values can overlap the other calls; inactive means mostly above about 0.92. The list shows a part of the results.
Can you answer with just one of these options? active, inactive

Completed entries (count: 6):
* CC(C)N(CCC(C(N)=O)(c1ccccc1)c1ccccn1)C(C)C (configuration not stated) | inactive
* NC(=NCCC[C@H](N)C(=O)O)N[N+](=O)[O-] | inactive
* COc1ccc(Cl)cc1C(=O)NCCc1ccc(S(=O)(=O)NC(=O)NC2CCCCC2)cc1 | inactive
* CCC(=O)c1c(O)cc(O)cc1O | inactive
* COc1ccc2c(c1C(C)C)CCC1C(C)(C)C(=O)CCC21C (configuration not stated) | inactive
* CNC(=O)Oc1cccc2c1OC(C)(C)O2 | inactive

Input line: Which outcome was assigned to CC(C)[N+](C)(CCC(C(N)=O)(c1ccccc1)c1ccccc1)C(C)C in this test?
Output line: inactive

###

experiment: chemical genetic growth profiling, strain panel (AID 1159580); conditions: S. cerevisiae deletion strains, growth OD, locus YJL095W, strain BCK1 (second series), hits give low values
The whole screen tested about 5,500 compounds, of which about 2,000 (36%) were called active. About 18% were inconclusive and are not listed. Some of the results follow.
Reported normalized growth by item:
Output: the number by itself.

Answered cases to consult:
* CCC1OC(=O)[C@H](C)C(=O)[C@H](C)[C@@H](OC2O[C@H](C)C[C@H](N(C)C)[C@H]2O)[C@](C)(OC)C2(CCCn3cnc(-c4cccnc4)c3)C[C@@H](C)C(=O)[C@H](C)[C@H]3N(C2)C(=O)O[C@]13C (some centres undefined) | 0.995
* CC1CC[C@]2(NC1)O[C@H]1CC3C4CC[C@H]5C[C@@H](O)CC[C@]5(C)C4CC[C@]3(C)[C@H]1[C@@H]2C (some centres undefined) | 0.0627
* C[C@]12C=CC(=O)C=C1CCC1C2[C@@H](O)C[C@@]2(C)C1CC[C@]2(O)C(=O)COP(=O)(O)O (some centres undefined) | 0.994

Input line: Given the compound COC(=O)c1c(C)cc(OC)cc1O , what is its reported normalized growth?
Output line: 0.996

Input line: Now consider Cc1cc(OC(=O)c2c(C)cc(O)cc2O)cc(O)c1C(=O)O and answer again.
Output line: 0.986

Input line: Also, CNC(=O)Oc1cccc2c1OC(C)(C)O2 please.
Output line: 0.997

Input line: Another compound to look at: CCc1cc(C(N)=S)ccn1
Output line: 1

Input line: Here is the next compound: O=c1ccc2cc(OC3OC(CO)C(O)C(O)C3O)c(O)cc2o1 (centres undefined)
Output line: 0.995

Input line: Input COC(=O)c1c(C)cc(O)cc1O
Output line: 1

Input line: What do you have for Cc1[nH]ccc2c1[nH]c1cc(=O)ccc12 ?
Output line: 0.995

Input line: Let us now turn to COc1cccc2c(C)cc(=O)[nH]c12
Output line: 0.965

###

assay: chemical genetic growth profiling, strain panel (AID 1159580); settings: S. cerevisiae deletion strains, growth OD, locus YBR231C, strain swc5, hits give low values
Screen size: about 5,500 compounds; about 2,000 (36%) were called active. Roughly 18% stayed inconclusive and do not appear here. The list shows a part of the results.
experimental readout: normalized growth
Write no unit; give the number alone.

Input line: For CCCCOc1cc(C(=O)NCCN(CC)CC)c2ccccc2n1 , what is its reported normalized growth?
Output line: 0.959

Input line: Please give the result for Cc1[nH]ccc2c1[nH]c1cc(=O)ccc12 too.
Output line: 0.975

Input line: Next up: COc1cccc2c(C)cc(=O)[nH]c12
Output line: 0.909

Input line: // next record Cc1cc(C2CCCCC2)n(O)c(=O)c1
Output line: 0.0693

###

experiment: chemical genetic growth profiling, strain panel (AID 1159580); settings: S. cerevisiae deletion strains, growth OD, locus YLR027C, strain aat2, hits give low values
Among all 5,500 compounds or so, about 2,000 (36%) were called active. Inconclusive results (about 18%) are left out. The list shows a part of the results. Where a SMILES comes first, the peptide text is derived from it.
experimental readout: normalized growth
Answer as a number with no unit attached.

• COC(=O)[C@H](Cc1ccccc1)NC(=O)[C@@H](N)CC(=O)O (H-Asp-Phe-OMe) = 1.02
• C=C(C)[C@H]1COc2cc3oc(=O)ccc3cc2O1 = 0.935
• OCC(O)C(O)C(O)C(O)C(O)CO (stereo not given) = 0.997

Input line: May I ask what normalized growth has been recorded for O=C(O)C1=C[C@@H](O)[C@@H](O)[C@H](O)C1 ?
Output line: 0.996

Input line: Also need N#Cc1nn(-c2c(Cl)cc(C(F)(F)F)cc2Cl)c(N)c1S(=O)C(F)(F)F (stereo not given) , thanks.
Output line: 0.955

###

experiment: chemical genetic growth profiling, strain panel (AID 1159580);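 note: tested at 20 µM; growth read once vehicle control cultures reached saturation at 30 °C; 1 = growth at the plate median or of vehicle wells; lower values mean less growth of the strain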; settings: S. cerevisiae deletion strains, growth OD, locus YDR159W, strain sac3, hits give low values
Among all 5,500 compounds or so, about 2,000 (36%) were called active. Inconclusive results (about 18%) are left out. The list shows a part of the results.
experimental readout: normalized growth
A bare number is all that is needed in reply.

• CO[C@@]1(NC(=O)C(C(=O)O)c2ccc(O)cc2)C(=O)N2C(C(=O)O)=C(CSc3nnnn3C)CO[C@@H]21 (some centres undefined) = 1.01
• CN[C@@H]1[C@@H](O)C(OC2[C@@H](N)C[C@@H](N)[C@H](O[C@H]3O[C@H](C(C)O)[C@@H](O)[C@H](O)[C@H]3N)[C@H]2O)OC[C@]1(C)O (some centres undefined) = 0.969
• C=C(C)[C@H]1COc2cc3oc(=O)ccc3cc2O1 = 0.905

// switching to the query compound
Input line: Given CN[C@@H]1C(O)[C@@H](O[C@@H]2[C@@H](O)[C@H](O[C@H]3OC(CN)=CC[C@H]3N)[C@@H](N)C[C@H]2N)OC[C@]1(C)O (some centres undefined) , state its recorded normalized growth.
Output line: 0.989

###

experiment: chemical genetic growth profiling, strain panel (AID 1159580);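 note: tested at 20 µM; growth read once vehicle control cultures reached saturation at 30 °C; 1 = growth at the plate median or of vehicle wells; lower values mean less growth of the strain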; conditions: S. cerevisiae deletion strains, growth OD, locus YPR135W, strain CTF4, hits give low values
In all, about 5,500 compounds went through this assay and about 2,000 (36%) were called active. About 18% were inconclusive and are not listed. Some of the results follow.
experimental readout: normalized growth
Write no unit; give the number alone.

// solved cases for normalized growth follow
* COc1ccccc1Oc1ccc(C(F)(F)F)cc1NC(=O)NC(=O)c1ccccc1F | 0.957
* Cc1ccc(/C=C2\CCc3ccccc3C2=O)o1 | 0.264
* Cc1cc(I)c(C)cc1I | 0.925

Input line: Sample COc1cc(/C=C(\C#N)C(N)=S)cc(OC)c1OC — what was its normalized growth?
Output line: 0.756

Input line: What do you get for O=C1NN=C2C3CC4CC12CC1(C3)C(=O)NN=C41 ?
Output line: 1.01

Input line: For CC(C)CC1NC(=O)NC1=O (stereo unspecified) then?
Output line: 1.13

Input line: Entry to check: OC1(C(F)(F)F)CC(c2ccccc2)=NN1 (stereo unspecified)
Output line: 0.92

Input line: Similarly, CCOC(=O)c1sc(SC(C)C)c2c1CCCC2=O ?
Output line: 0.762

###

experiment: chemical genetic growth profiling, strain panel (AID 1159580);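 note: tested at 20 µM; growth read once vehicle control cultures reached saturation at 30 °C; 1 = growth at the plate median or of vehicle wells; lower values mean less growth of the strain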; conditions: S. cerevisiae deletion strains, growth OD, locus YHR013C, strain ard1
The whole screen tested about 5,500 compounds, of which about 2,000 (36%) were called active. Inconclusive results (about 18%) are left out. No stated cut-off is given here; in the data, active means normalized growth mostly below about 0.91 (no sharp cut-off); inconclusive means no clear call, values can overlap the other calls; inactive means mostly above about 0.92. The list shows a part of the results. Where a SMILES comes first, the peptide text is derived from it.
Just give me one of these, please: true (1) for active, false (0) for inactive

Illustrative cases are given below, each with its answer.
* Cc1[nH]ccc2c1[nH]c1cc(=O)ccc12 | false (0)
* CCCCC1C(=O)N(c2ccccc2)N(c2ccc(O)cc2)C1=O (stereo not given) | false (0)
* COC(=O)[C@H](Cc1ccccc1)NC(=O)[C@@H](N)CC(=O)O (H-Asp-Phe-OMe) | false (0)
* O=C(O[C@@H]1Cc2c(O)cc(O)cc2O[C@@H]1c1cc(O)c(=O)c2c(O)c(O)cc([C@H]3Oc4cc(O)cc(O)c4C[C@H]3O)c2c1)c1cc(O)c(O)c(O)c1 | true (1)
* C[N+](C)(C)CC(O)CC(=O)O (stereo not given) | false (0)
* CCC(c1ccc(O)cc1)C(CC)c1ccc(O)cc1 (stereo not given) | true (1)
* COc1cccc2c(C)cc(=O)[nH]c12 | false (0)
* CCC1OC(=O)[C@H](C)C(=O)[C@H](C)[C@@H](OC2O[C@H](C)C[C@H](N(C)C)[C@H]2O)[C@](C)(OC)C2(CCCn3cnc(-c4cccnc4)c3)C[C@@H](C)C(=O)[C@H](C)[C@H]3N(C2)C(=O)O[C@]13C (stereo not given in full) | false (0)

Input line: Which outcome was assigned to CC(=O)OC(C)C[N+](C)(C)C (stereo not given) in this test?
Output line: false (0)

Input line: Repeat for the following compound: CC(C)c1c(O)ccc2c1CCC1[C@@](C)(CO)CCC[C@]21C (stereo not given in full)
Output line: false (0)

Input line: Then CC(C)c1c(O)ccc2c1CCC1[C@@](C)(C=O)CCC[C@]21C (stereo not given in full) ?
Output line: false (0)

Input line: Next record, please: CC(C)c1c(O)c(-c2cc3c(c(C(C)C)c2O)CCC2C(C)(C)CCC[C@]32C)cc2c1CCC1C(C)(C)CCC[C@]21C (stereo not given in full)
Output line: false (0)

Input line: Now consider N#Cc1nn(-c2c(Cl)cc(C(F)(F)F)cc2Cl)c(N)c1S(=O)C(F)(F)F (stereo not given) .
Output line: false (0)

Input line: Would you kindly repeat that for O=C(OC1Cc2c(O)cc(O)cc2OC1c1cc(=O)c(O)c2c(O)c(O)cc(C3Oc4cc(O)cc(O)c4CC3O)c2c1)c1cc(O)c(O)c(O)c1 (stereo not given) ?
Output line: true (1)

Input line: Also check CC(=O)Oc1ccc2c(c1C(C)C)CCC1C(C)(C)CCC[C@]21C (stereo not given in full)
Output line: false (0)

Input line: Now try O=c1ccc2cc(OC3OC(CO)C(O)C(O)C3O)c(O)cc2o1 (stereo not given) .
Output line: false (0)
